# Experimental System: CDK7/CycH/MAT1 (Homo sapiens, UniProt P50613)
# Construct: purchased ProQinase 0366-0360-4
# Sequence (P50613 whole entry): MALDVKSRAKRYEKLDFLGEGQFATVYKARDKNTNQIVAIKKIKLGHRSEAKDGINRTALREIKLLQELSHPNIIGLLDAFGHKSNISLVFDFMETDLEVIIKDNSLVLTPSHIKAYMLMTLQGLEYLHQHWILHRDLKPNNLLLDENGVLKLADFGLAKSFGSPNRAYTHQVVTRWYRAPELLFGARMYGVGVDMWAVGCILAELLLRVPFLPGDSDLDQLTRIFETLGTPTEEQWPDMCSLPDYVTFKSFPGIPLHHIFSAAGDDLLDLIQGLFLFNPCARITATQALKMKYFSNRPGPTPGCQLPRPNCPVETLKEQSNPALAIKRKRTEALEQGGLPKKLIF
# Sequence (P51946 whole entry partner): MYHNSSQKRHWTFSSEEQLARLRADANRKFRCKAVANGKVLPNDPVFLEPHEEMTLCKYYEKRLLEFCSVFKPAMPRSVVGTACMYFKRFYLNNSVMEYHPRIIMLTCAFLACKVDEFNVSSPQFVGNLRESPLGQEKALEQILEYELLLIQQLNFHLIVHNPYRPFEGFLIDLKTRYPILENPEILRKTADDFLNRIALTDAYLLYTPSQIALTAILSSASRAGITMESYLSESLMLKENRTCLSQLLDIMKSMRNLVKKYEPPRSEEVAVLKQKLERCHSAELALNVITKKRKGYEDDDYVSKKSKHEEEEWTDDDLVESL
# Sequence (P51948 whole entry partner): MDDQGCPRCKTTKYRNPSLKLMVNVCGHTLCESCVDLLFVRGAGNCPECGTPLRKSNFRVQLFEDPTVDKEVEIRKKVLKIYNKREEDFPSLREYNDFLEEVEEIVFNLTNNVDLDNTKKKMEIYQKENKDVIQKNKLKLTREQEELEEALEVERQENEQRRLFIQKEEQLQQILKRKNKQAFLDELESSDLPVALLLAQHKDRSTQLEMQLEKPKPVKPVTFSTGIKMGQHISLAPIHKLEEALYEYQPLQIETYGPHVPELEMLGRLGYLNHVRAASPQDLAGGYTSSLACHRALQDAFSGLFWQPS
# Protocol Text: Kinase ADP-Glo Assay
# Type: biochemical
# Particulars: ADP-Glo assay (compounds without *), ATP 1 μM, 60 minutes at room temperature
Readout Type: IC50

- Molecule: "Cc1cc(F)cc(Nc2cc(N[C@@H]3CNC[C@@H](O)C3)nc3c(C4CCC4)cnn23)c1"
  Value Observed: "100 to 1000 nM"
- Molecule: "N#Cc1cccc(Nc2cc(NC[C@H]3CCNC[C@@H]3O)nc3c(C4CC4)cnn23)c1"
  Value Observed: "< 100 nM"
- Molecule: "Fc1cccc(Nc2cc(OC[C@H]3CCCNC3)nc3c(C4CC4)cnn23)c1"
  Value Observed: "100 to 1000 nM"
- Molecule: "O[C@@H]1CNCC[C@@H]1CNc1cc(Nc2cccc(F)c2)n2ncc(C3CC3)c2n1"
  Value Observed: "100 to 1000 nM"
- Molecule: "N[C@H]1CC[C@H](Nc2cc(Nc3cccc(F)c3)n3ncc(C4CC4)c3n2)CC1"
  Value Observed: "100 to 1000 nM"
- Molecule: "Clc1cccc(Nc2cc(N[C@H]3CCCNC3)nc3c(C4CC4)cnn23)c1"
  Value Observed: "< 100 nM"
- Molecule: "O[C@@H]1CNCC[C@H]1CNc1cc(Nc2cccc(F)c2)n2ncc(C3CC3)c2n1 [Compound I-17]"
  Value Observed: "100 to 1000 nM"
- Molecule: "O[C@H]1CNCC[C@@H]1CNc1cc(Nc2cccc(F)c2)n2ncc(C3CCC3)c2n1"
  Value Observed: "< 100 nM"
- Molecule: "Cc1cc(Nc2cc(N[C@H]3CCCNC3)nc3c(C4CC4)cnn23)cc(C(F)(F)F)c1"
  Value Observed: "100 to 1000 nM"
- Molecule: "N[C@H]1CC[C@@H](Nc2cc(Nc3cccc(F)c3)n3ncc(C4CC4)c3n2)CC1"
  Value Observed: "100 to 1000 nM"
